# TARGET_DESC: Beta-secretase 1 (Homo sapiens)
# Sequence (P56817 whole entry): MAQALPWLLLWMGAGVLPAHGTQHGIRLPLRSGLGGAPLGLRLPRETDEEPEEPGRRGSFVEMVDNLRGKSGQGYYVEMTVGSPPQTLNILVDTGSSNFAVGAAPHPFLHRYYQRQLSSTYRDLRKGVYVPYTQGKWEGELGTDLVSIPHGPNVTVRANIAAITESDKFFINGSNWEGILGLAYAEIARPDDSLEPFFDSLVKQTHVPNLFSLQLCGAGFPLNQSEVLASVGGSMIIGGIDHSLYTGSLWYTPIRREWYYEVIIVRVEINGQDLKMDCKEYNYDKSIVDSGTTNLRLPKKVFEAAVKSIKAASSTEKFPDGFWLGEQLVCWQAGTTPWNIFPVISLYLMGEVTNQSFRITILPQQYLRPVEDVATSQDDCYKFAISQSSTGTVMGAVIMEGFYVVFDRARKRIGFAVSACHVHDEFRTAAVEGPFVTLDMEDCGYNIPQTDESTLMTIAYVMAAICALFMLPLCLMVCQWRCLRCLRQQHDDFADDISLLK
# EXPERIMENT_DESCRIPTION: Inhibition of BACE1 in human HEK293 cells overexpressing APP with Swedish mutation assessed as inhibition of amyloid beta 40 production
# Assay type: cell-based
# ASSAY_CONTEXT: read-out: IC50
READOUT: IC50
Hey, just the number and the unit after it is fine.

compound=C=CCO/N=C(/C)c1cc(C(=O)N[C@@H](Cc2cc(F)cc(F)c2)[C@H](O)CNCc2cccc(OC)c2)cc(C(=O)N(CCC)CCC)c1 result="120 nM"
compound="COc1cccc(CNC[C@@H](O)[C@H](Cc2cc(F)cc(F)c2)NC(=O)c2cc(C(=O)NC(C)c3ccc(F)cc3)cc(C(C)O)c2)c1 (stereo not given in full)" result="164 nM"

[in] Please give the measured IC50 for this compound: `COc1cccc(CNC[C@@H](O)[C@H](Cc2cc(F)cc(F)c2)NC(=O)c2cc(/C(C)=N\OCc3ccccc3)cc(N(c3ccccc3)S(C)(=O)=O)c2)c1`
[out] 88 nM

[in] Please give the measured IC50 for this compound: `COc1cccc(CNC[C@@H](O)[C@H](Cc2cc(F)cc(F)c2)NC(=O)c2cccc(N(C)S(C)(=O)=O)c2)c1`
[out] 80 nM

[in] Please give the measured IC50 for this compound: COc1cccc(CNC[C@@H](O)[C@H](Cc2cc(F)cc(F)c2)NC(=O)c2cc(C(C)=O)cc(C(=O)NC(C)c3ccc(F)cc3)c2)c1 (stereo not given in full)
[out] 91 nM

Measured values drawn from ChEMBL document CHEMBL1151886 for this set.
